Molecular target: purified recombinant form of human BACE1 aspartyl protease (Homo sapiens)
Construct: hexahistidine (C)
Sequence (P56817 46-501): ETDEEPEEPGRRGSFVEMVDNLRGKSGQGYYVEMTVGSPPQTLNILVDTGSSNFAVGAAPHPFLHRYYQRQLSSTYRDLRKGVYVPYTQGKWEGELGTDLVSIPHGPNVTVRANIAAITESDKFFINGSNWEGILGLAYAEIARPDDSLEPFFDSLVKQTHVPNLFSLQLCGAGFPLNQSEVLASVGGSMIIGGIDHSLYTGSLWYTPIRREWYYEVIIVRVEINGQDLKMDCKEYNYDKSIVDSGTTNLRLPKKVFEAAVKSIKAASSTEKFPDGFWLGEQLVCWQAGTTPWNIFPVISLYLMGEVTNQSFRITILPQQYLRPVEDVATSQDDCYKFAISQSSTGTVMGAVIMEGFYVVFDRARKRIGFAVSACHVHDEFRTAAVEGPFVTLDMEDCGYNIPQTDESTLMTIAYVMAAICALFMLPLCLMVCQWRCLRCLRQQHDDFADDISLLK
Experiment: in vitro inhibition of β-secretase (BACE1) activity, FRET cleavage of fluorogenic peptide substrate FS1
Details: purified enzyme 10 nM, substrate FS1 5 μM, sodium acetate buffer pH 4.5, 37° C., 45 minutes; read-out: IC50 (concentration of product giving 50% inhibition of the enzyme activity)
IC50: recorded values

INSERT INTO assay_data (query_smiles, tgt, result) VALUES
  ('CCCC(CCC)N1CCc2c(C(=O)N[C@@H](Cc3cc(F)cc(F)c3)[C@H](O)CNC3(c4cccc(C(F)(F)F)c4)CC3)cc(-c3cccc(C#N)c3)cc2C1=O', 'purified recombinant form of human BACE1 aspartyl protease (Homo sapiens)', '390 nM'),
  ('CCCC(CCC)N1CCc2c(C(=O)N[C@@H](Cc3cc(F)cc(F)c3)[C@H](O)CNC3(c4cccc(C(F)(F)F)c4)CC3)cc(N(C)S(C)(=O)=O)cc2C1=O', 'purified recombinant form of human BACE1 aspartyl protease (Homo sapiens)', '48 nM'),
  ('CCCC(CCC)N1CCc2c(C(=O)N[C@@H](Cc3cc(F)cc(F)c3)[C@H](O)CNC3(c4cccc(C(F)(F)F)c4)CC3)cc(-c3ccccc3C#N)cc2C1=O', 'purified recombinant form of human BACE1 aspartyl protease (Homo sapiens)', '630 nM');

IN: Which value of IC50 has been reported for `CCCC(CCC)N1Cc2c(C(=O)N[C@@H](Cc3ccccc3)[C@H](O)CNCc3cccc(C(F)(F)F)c3)cccc2C1=O` in the records?
OUT: 770 nM

====

melting point: recorded values
# unit: °C | format: bare number

// known answers, use as guide
INSERT INTO results (compound, parameter, unit_abbreviation, result) VALUES
  ('Cl.O=C(N[C@@H](Cc1cc(F)cc(F)c1)[C@H](O)CNC1(c2cccc(C(F)(F)F)c2)CC1)c1cccc2c1CCN(Cc1ccccc1)C2=O', 'melting point', '°C', 178),
  ('CC(c1ccc(F)cc1)N1CCc2c(C(=O)N[C@@H](Cc3cc(F)cc(F)c3)[C@H](O)CNC3(c4cccc(C(F)(F)F)c4)CC3)cccc2C1=O.Cl (stereo partly shown)', 'melting point', '°C', 157);

IN: Which value of melting point has been reported for `CCCC(CCC)N1CCc2c(C(=O)N[C@@H](Cc3cc(F)cc(F)c3)[C@H](O)CNC3(c4cccc(C(F)(F)F)c4)CC3)cc(C(F)(F)F)cc2C1=O.Cl` in the records?
OUT: 196

====

melting point: recorded values
# unit: °C | format: bare number

// known answers, use as guide
INSERT INTO results (query_smiles, result) VALUES
  ('CCCC(CCC)N1Cc2c(C(=O)N[C@@H](Cc3cc(F)cc(F)c3)[C@H](O)CNC3(c4cccc(C(F)(F)F)c4)CC3)cc(N(C)S(C)(=O)=O)cc2C1=O.Cl', 194),
  ('CCCC(CCC)N1CCc2c(C(=O)N[C@@H](Cc3cc(F)cc(F)c3)[C@H](O)CNC3(c4cccc(C(F)(F)F)c4)CC3)cccc2C1=O.Cl', 172),
  ('CCCC(CCC)N1CCc2c(C(=O)N[C@@H](Cc3ccccc3)[C@H](O)CNC3(c4cccc(C(F)(F)F)c4)CC3)cccc2C1=O.Cl', 174);

Proceed to the following item.
IN: Which value of melting point has been reported for `CCCCCN1CCc2c(C(=O)N[C@@H](Cc3cc(F)cc(F)c3)[C@H](O)CNC3(c4cccc(C(F)(F)F)c4)CC3)cccc2C1=O.Cl` in the records?
OUT: 165
